The origin of these recorded values is the supplement of paper PMC10065799.

Biological target: FGFR1 (UniProt P11362)
Sequence (P11362 whole entry, looked up): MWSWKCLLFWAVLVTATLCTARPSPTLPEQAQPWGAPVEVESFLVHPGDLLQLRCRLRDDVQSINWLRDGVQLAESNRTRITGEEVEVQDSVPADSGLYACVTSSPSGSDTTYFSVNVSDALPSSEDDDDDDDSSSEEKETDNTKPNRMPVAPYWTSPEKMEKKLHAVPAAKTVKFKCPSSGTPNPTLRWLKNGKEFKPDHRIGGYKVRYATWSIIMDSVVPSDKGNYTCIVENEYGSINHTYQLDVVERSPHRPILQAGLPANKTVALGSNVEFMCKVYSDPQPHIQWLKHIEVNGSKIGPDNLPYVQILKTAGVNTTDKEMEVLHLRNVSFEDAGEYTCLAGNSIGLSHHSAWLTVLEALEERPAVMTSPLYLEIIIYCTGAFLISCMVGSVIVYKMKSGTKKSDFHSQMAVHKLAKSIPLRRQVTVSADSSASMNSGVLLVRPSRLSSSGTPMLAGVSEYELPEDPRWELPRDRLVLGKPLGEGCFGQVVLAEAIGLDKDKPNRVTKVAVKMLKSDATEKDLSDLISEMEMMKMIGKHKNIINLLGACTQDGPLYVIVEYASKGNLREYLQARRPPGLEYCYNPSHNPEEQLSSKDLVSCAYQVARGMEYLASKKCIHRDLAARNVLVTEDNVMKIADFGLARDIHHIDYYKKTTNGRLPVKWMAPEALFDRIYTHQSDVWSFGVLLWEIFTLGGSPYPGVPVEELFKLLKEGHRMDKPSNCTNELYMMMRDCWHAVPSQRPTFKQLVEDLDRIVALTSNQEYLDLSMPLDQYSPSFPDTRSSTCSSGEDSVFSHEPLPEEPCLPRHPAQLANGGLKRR
Assay: phosphorylation enrichment, bacterial display (enrichment ratio); higher = better substrate or ligand; peptides without Tyr show the background
// class assignment uses phosphorylation enrichment with these ranges: category 1: < 0.4; category 2: ≥ 0.4 and < 0.6; category 3: ≥ 0.6

Q. Which bin, given its phosphorylation enrichment, does LSTPEYGPKLK [TBC1D14_Y46_A43T] occupy?
A. category 2

Q. In plain terms, what class is IVEFAYNDKAI [PUM3_Y259_YF] ?
A. category 2

Q. Which category does the recorded phosphorylation enrichment put WISNRYLDFSS [PRPH2_Y184] in?
A. category 2

Q. Which band does DPKFHYDNTAG [KDR_Y1214] fall in?
A. category 2

Q. Could you place GVRLYYRVRES [RB1_Y454_M457R] in its proper category? Many thanks.
A. category 3

Q. Where would SNKLTYGTVVF [ACOX1_Y275_M278V] land among the classes by reported phosphorylation enrichment?
A. category 2

Q. Consider MDDDQYALLTA [EFCAB6_Y675_T680A] . To which phosphorylation enrichment class does it belong?
A. category 3

Q. // return the class label for CTTIHYNFMCH [TP53_Y234_N239H_YF]
A. category 2

Q. For EALDFYGELRT [PTEN_Y155_V158L] , which phosphorylation enrichment bin applies?
A. category 2

Q. // return the class label for SIKGKYVTALY [KCNH2_Y611_D609G]
A. category 1

Q. In plain terms, what class is FPMLNYKDIRK [CFAP221_Y798] ?
A. category 1

----------
Target: EPHB2 (UniProt P29323)
Sequence (P29323 whole entry, looked up): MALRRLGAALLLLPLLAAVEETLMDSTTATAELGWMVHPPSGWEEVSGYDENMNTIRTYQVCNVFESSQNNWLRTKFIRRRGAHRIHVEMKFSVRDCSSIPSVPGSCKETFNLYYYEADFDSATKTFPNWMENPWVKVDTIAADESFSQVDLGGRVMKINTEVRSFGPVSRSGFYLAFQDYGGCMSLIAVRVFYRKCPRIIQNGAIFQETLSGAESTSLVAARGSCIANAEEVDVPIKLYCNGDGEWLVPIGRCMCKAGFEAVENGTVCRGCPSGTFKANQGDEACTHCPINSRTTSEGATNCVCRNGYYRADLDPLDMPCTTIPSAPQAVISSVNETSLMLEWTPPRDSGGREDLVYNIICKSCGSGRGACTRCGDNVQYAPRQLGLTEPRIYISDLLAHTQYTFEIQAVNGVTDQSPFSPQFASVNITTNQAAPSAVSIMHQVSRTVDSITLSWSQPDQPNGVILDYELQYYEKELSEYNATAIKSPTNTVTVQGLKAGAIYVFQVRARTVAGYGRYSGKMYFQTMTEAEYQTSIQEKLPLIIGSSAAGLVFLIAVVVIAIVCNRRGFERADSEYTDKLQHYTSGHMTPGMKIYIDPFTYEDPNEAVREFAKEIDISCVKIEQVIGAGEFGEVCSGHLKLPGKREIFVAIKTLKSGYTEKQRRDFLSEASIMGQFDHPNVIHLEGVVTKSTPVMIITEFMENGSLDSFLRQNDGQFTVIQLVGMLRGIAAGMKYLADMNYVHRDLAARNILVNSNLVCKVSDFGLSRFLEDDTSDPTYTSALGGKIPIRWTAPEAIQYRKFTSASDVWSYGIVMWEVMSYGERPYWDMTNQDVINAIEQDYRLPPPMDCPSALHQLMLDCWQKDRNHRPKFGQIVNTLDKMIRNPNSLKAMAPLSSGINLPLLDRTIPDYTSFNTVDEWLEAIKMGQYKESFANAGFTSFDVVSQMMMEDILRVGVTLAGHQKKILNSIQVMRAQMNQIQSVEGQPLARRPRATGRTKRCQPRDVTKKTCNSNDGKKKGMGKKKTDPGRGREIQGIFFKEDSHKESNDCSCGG
Test: phosphorylation enrichment, bacterial display (enrichment ratio); higher = better substrate or ligand; peptides without Tyr show the background
measured.endpoint: phosphorylation enrichment
Give bare numbers.

Solved cases (2 shown):
>  <residue.codes>
EFNLMYHGTKE [IRF6_Y97_D98H]

>  <target.or.system>
EPHB2 (UniProt P29323)

>  <phosphorylation enrichment>
0.645

$$$$
>  <residue.codes>
PQAVRYIYTID [DCX_Y103_G100A]

>  <target.or.system>
EPHB2 (UniProt P29323)

>  <phosphorylation enrichment>
0.722

$$$$

Give one value of phosphorylation enrichment per listed sequence.
1. PAGSGYPAFLG [ATP6V1A_Y374_D371G_YF]
2. AGREIYESEKC [TTN_Y4424_D4427E]
3. FTRNFYVWAVL [CYBA_Y88_R90W_YF]
4. SFGMVYEGNAR [INSR_Y1038]

A.
1: 1.17; 2: 0.585; 3: 0.383; 4: 0.413

Fill in phosphorylation enrichment for each of the 7 sequences listed.
1. ISKKIYDTIHD [CTNNA3_Y614]
2. TQPSPYAVFLF [RPGRIP1_Y823_R827L_YF]
3. LSDGPYSSPYE [EPOR_Y485_N487S]
4. PSPMPYASCQM [FOXL2_Y215]
5. EFISEYCGEII [EZH2_Y641]
6. KVALVYGQMNQ [ATP5F1B_Y269_E274Q]
7. LAVPLYKNGVK [CPS1_Y1069]

A.
[0.516, 1.28, 0.95, 0.65, 0.716, 0.641, 1.67]

Go through the items and report each one's phosphorylation enrichment.
1. AHLLQYNHQVK [LGALS3_Y221_R224Q]
2. GCKNRYDKGKP [THAP1_Y14_D17G]
3. TNQVIYLNPPI [DYNC1H1_Y970]
4. TNYRLYLRSLE [MTM1_Y71]
5. CTLTHYKSAVK [ASNS_Y555_R550C]

A.
1. 0.505
2. 0.469
3. 4.73
4. 0.556
5. 0.431

For each entry beneath this line, provide reported phosphorylation enrichment.
1. VQVAFYTMMMN [SPATA17_Y84_YF]
2. GTFEDYVEGLR [MYL6_Y89_YF]
3. MDDDQYALLTA [EFCAB6_Y675_T680A]
4. DAHFTYSRFPW [LY75_Y888_D884A_YF]
5. CQAHGYFCQLI [STK11_Y156]
6. NTGYYYDLYGG [PTPN11_Y63_D61Y]
7. KDHPDYKYQLR [SOX10_Y171_P175L]
8. VGNAAYQAGSL [STK36_Y1181_P1185S]

A.
1: 1.15; 2: 0.534; 3: 0.722; 4: 3.63; 5: 0.546; 6: 10.6; 7: 0.395; 8: 0.37

----------
Target: EPHB2 (UniProt P29323)
Assay: phosphorylation enrichment, bacterial display (enrichment ratio); higher = better substrate or ligand; peptides without Tyr show the background
measured.endpoint: phosphorylation enrichment

>  <residue.codes>
LSTPEYGPKLK [TBC1D14_Y46_A43T]

>  <result>
0.496

$$$$
>  <residue.codes>
REGAKYVSHSA [ASS1_Y113_G117S]

>  <result>
0.468

$$$$

Provide reported phosphorylation enrichment for each item, in the same order as listed.
1. KDFTKYVAYIE [KDM4B_Y31_N29T]
2. IEDNEYTAREG [HCK_Y411]
3. LLKANYELLNA [POLR3A_Y714_K713N]
4. SARSAYQEAID [SFN_Y151_M155I]

A.
1: 0.584; 2: 0.491; 3: 0.804; 4: 0.405

Q. What is its phosphorylation enrichment for EPHB2 (UniProt P29323)? Entry: GDGRFYMMEAI [PGM1_Y66_K68M]
A. 0.553

----------
Biological target: EPHB2 (UniProt P29323)
Assay: phosphorylation enrichment, bacterial display (enrichment ratio); higher = better substrate or ligand; peptides without Tyr show the background
Entry flag: label 1 if phosphorylation enrichment reaches 0.5; label 0 if it does not.

>  <residue.codes>
RGEEPYTKKAL [TTC21B_Y160_K157E]

>  <category>
label 0

$$$$
>  <residue.codes>
CHRQLYHKCTH [F12_Y58_Y53C]

>  <category>
label 0

$$$$

Q. Test whether the sequence ALEKTYNTYRS [B4GALNT2_Y538] records phosphorylation enrichment of 0.5 or higher.
A. label 0

Q. Please tell me: is the sequence VFSTDCFRVGG [NTRK2_Y706_Y706C_YF] at or over 0.5 in terms of phosphorylation enrichment?
A. label 0

Q. Decide: is the reported value of phosphorylation enrichment for EAEPFYRSLRD [NPHS1_Y1139_YF] equal to or greater than 0.5?
A. label 1

----------
System: AncSZ
Assay: phosphorylation enrichment, bacterial display (enrichment ratio); higher = better substrate or ligand; peptides without Tyr show the background
measured.endpoint: phosphorylation enrichment
Answers are plain numbers.

>  <residue.codes>
CQAHGYFCQLI [STK11_Y156]

>  <phosphorylation enrichment>
0.873

$$$$
>  <residue.codes>
KTKIGYSPLHQ [ANK1_Y735_L733I]

>  <phosphorylation enrichment>
0.489

$$$$

Look up phosphorylation enrichment for the entries below, preserving their order.
1. RAKLFYQEVPA [METTL11B_Y76]
2. EGNERYEGFCV [GRIA3_Y451_YF]
3. RASGIYFVPKG [APBB1IP_Y340_YF]
4. VTRLRYPVCFG [ITK_Y336]

A.
[1.95, 1.12, 1.17, 0.815]

----------
Biological target: c-Src SH2;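 further: peptide library displayed on the E. coli surface as eCPX fusions, selected cells deep-sequenced, score is each peptide's frequency after selection divided by its frequency in the input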
Test: SH2 binding enrichment of the phosphorylated peptide, bacterial display (enrichment ratio); higher = better substrate or ligand; peptides without Tyr show the background
measured.endpoint: SH2 binding enrichment
Answers are plain numbers.

>  <residue.codes>
ERNARYRTPKI [PTK2B_Y699]

>  <result.number>
0.428

$$$$

Batch lookup, SH2 binding enrichment per entry.
1. NELTFYCCKKD [CD59_Y87_YF]
2. RDLRTYIMPAH [PNMT_Y256]
3. HRGSLYLAIEY [TEK_Y899_Y897S]

A.
1: 0.503; 2: 0.777; 3: 0.375

----------
Biological target: Hck (UniProt P08631)
Sequence (P08631 whole entry, looked up): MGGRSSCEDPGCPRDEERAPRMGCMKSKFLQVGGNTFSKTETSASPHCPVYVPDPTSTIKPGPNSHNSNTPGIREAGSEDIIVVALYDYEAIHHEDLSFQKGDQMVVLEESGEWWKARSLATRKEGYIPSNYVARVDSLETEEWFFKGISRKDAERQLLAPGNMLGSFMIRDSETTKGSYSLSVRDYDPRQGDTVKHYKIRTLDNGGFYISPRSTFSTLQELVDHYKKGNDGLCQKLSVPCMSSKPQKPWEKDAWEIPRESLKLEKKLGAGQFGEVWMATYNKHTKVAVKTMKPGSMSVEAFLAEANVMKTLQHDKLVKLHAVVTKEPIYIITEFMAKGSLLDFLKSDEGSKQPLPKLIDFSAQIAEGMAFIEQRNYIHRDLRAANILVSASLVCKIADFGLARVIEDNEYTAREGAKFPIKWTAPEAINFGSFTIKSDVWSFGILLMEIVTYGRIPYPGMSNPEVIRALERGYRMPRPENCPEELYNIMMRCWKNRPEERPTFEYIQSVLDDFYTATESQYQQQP
Experiment: phosphorylation enrichment, bacterial display (enrichment ratio); higher = better substrate or ligand; peptides without Tyr show the background
Label yes when phosphorylation enrichment is at or above 0.5; anything below gets no.

Record excerpt, results attached:
>  <residue.codes>
QGIYGYHHHMQ [UFSP2_Y287_Y290H]

>  <category>
yes

$$$$
>  <residue.codes>
FQEKSYIKGTS [LCTL_Y331_L326F]

>  <category>
no

$$$$
>  <residue.codes>
PPVVNYEQDAR [FER_Y402_E404Q]

>  <category>
yes

$$$$
>  <residue.codes>
GTTIHYNFMCN [TP53_Y234_C229G_YF]

>  <category>
yes

$$$$
>  <residue.codes>
AVEDQYYRVDC [FHL1_Y207_C209R]

>  <category>
yes

$$$$

Q. Has FPPTHYIRRMP [SLC4A11_Y820_V824M_YF] a recorded phosphorylation enrichment greater than or equal to 0.5?
A. yes

Q. Threshold query (phosphorylation enrichment >= 0.5) on LVRPPYSYSAL [FOXI1_Y126]
A. yes

Q. Test whether the sequence GFPVHYTDMSN [DNMT3B_Y815_V818M] records phosphorylation enrichment of 0.5 or higher.
A. no
